koff listing for selected binders.
- Target Or Test System: T1, Human 6xHis tagged NKp46 recombinant protein (human, UniProt O76036 22-255, limits assumed)
- T1 construct: also called NKp46-His; soluble NKp46-His recombinant proteins; not shown: 6xHis tag
- T1 sequence (O76036 22-255 Q82K limits assumed): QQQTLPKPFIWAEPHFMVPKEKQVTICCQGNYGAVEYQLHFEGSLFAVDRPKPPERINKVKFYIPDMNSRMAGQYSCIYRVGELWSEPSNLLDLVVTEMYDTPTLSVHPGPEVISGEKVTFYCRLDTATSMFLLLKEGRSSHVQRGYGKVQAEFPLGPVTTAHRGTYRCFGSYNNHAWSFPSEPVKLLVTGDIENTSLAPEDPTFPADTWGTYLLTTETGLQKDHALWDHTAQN
- Test Description: SPR Biacore T100, antibody captured on Protein-G chip, soluble NKp46-His 12.5-200 nM, single cycle kinetics, 1:1 model, monovalent
Only the number, expressed in s⁻¹, is required.

8B6B (antibody, V domains shown, Same heavy chain variable domain as 8B6A with a different light chain; also called CHG1-M-H46 8B6-B) VH: QVQLQQPGSELVRPGASVKLSCKASGYTFTSYWMHWVKQRPGQGLEWIGTIYPGSDITNYDEKFKNKATLTVDTSSSTAYMQLSSLTSEDSAVYYCTRDGRFANWGQGTLVTVSA VL: EIQMTQSPSSLSASLGERVSLTCRASQDIGSSLNWLQQEPDGTIKRLIYATSSLDSGVPKRFSGSRSGSDYSLTISSLESEDFVDYYCLQYASSPYTFGGGTKLEIK: 0.0011
9H11A (antibody, V domains shown, also called CHG1-M-H46 9H11-A) VH: QVQLQQPGAELVKPGASVKLSCKASGYTFTSYWMHWVKLRPGQGFEWIGEIIPSNGVTNYNEKFKRKATLTVDKSSSTAYMQLSSLTSEDSAVYYCTIRLRYALDYWGQGTSVTVSA VL: DIQMTQTTSSLSASLGDRVTISCRASQDISNFLNWYQQKPDGTVKLLIYYTSRLHSGVPSRFSGSGSGTDYSLTISNLEQEDIATYFCQQGNTLPPTFGGGTKLEIK: 0.000199
9H11B (antibody, V domains shown, Same heavy chain variable domain as 9H11A with a different light chain; also called CHG1-M-H46 9H11-B) VH: QVQLQQPGAELVKPGASVKLSCKASGYTFTSYWMHWVKLRPGQGFEWIGEIIPSNGVTNYNEKFKRKATLTVDKSSSTAYMQLSSLTSEDSAVYYCTIRLRYALDYWGQGTSVTVSA VL: DIVMTQSQKFMSTSVGDRVSVTCKASQNVGTNVAWYQQKPGQSPKALIYSTSFRYSGVPDRFTGSGSGTDFTLTISNVQSEDLAEYFCQQYNSYPFTFGSGTKLEIK: 0.000253

Now look at this entry.
Tell us which koff value is on record for 8B6A (antibody, V domains shown, Mouse variable domains; light chain is kappa (VK); also called CHG1-M-H46 8B6-A) VH: QVQLQQPGSELVRPGASVKLSCKASGYTFTSYWMHWVKQRPGQGLEWIGTIYPGSDITNYDEKFKNKATLTVDTSSSTAYMQLSSLTSEDSAVYYCTRDGRFANWGQGTLVTVSA VL: EIVLTQSPAITAASLGQKVTITCSASSSVSYMHWYQQKSGTSPKPWIYEISKLASGVPARFSGSGSGTSYSLTISSMEAEDAAIYYCQQWNLPLTFGAGTKLELK
0.00109
